Would you mind telling me the reported Split Luciferase Assay %Lum Avg of each entry?
EXPERIMENTAL_SYSTEM: FGF14:Nav1.6 C-tail complex (Homo sapiens, UniProt Q92915+Q9UQD0)
Construct: polymerase chain reaction (PCR) amplification of the FGF14 open reading frame (nt 1–855); C-terminal fragment of Nav1.6 (amino acids 1763–1976) fused with CD4ΔC-tail (amino acids 1–395); expressed in transfected cells
Sequence (Q92915 1-252 isoform Q92915-2): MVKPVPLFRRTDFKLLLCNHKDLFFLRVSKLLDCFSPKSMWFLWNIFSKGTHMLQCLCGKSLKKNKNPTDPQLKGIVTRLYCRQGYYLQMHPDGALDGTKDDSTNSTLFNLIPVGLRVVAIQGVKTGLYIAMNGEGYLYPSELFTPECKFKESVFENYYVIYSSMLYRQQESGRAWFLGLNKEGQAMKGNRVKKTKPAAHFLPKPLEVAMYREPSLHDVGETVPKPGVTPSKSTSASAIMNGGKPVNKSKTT
Sequence (Q9UQD0 1763-1976 limits assumed): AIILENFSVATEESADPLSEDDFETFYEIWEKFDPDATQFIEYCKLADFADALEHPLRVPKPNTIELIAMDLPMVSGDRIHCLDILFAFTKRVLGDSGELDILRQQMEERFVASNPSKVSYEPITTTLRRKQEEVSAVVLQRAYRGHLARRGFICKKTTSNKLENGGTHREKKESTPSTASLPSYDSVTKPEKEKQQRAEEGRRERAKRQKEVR
EXPERIMENT_SUMMARY: Split-luciferase complementation assay (LCA) in Clone V double stable HEK293 cells
Assay type: cell-based
CONDITIONS_USED: CC_NCI screening; average of Set 1 and Set 2; normalized to 0.3% DMSO controls
Structures can show the parent of a compound that is named as a salt.
Give bare numbers, in %.

Some molecules with recorded Split Luciferase Assay %Lum Avg:
Report Split Luciferase Assay %Lum Avg for COc1cccc2c1C(=O)c1c(O)c3c(c(O)c1C2=O)C[C@@](O)(C(C)=O)C[C@@H]3O[C@H]1C[C@H](N)[C@H](O)[C@H](C)O1 [Daunorubicin hydrochloride] please.
54.77

Report Split Luciferase Assay %Lum Avg for C=CCNC1=C2C[C@@H](C)C[C@H](OC)[C@H](O)[C@@H](C)/C=C(\C)[C@H](OC(N)=O)[C@@H](OC)/C=C\C=C(/C)C(=O)NC(=CC1=O)C2=O [Compound 17-AAG] please.
43.80

Report Split Luciferase Assay %Lum Avg for Cc1nc(Nc2ncc(C(=O)Nc3c(C)cccc3Cl)s2)cc(N2CCN(CCO)CC2)n1 [Dasatinib] please.
85.90

Provide Split Luciferase Assay %Lum Avg values for the following items, in order.
1. COc1cccc2c1C(=O)c1c(O)c3c(c(O)c1C2=O)C[C@@](O)(C(=O)CO)C[C@@H]3O[C@H]1C[C@H](N)[C@@H](O)[C@H](C)O1 [Epirubicin hydrochloride]
2. CCCCCCCCCCCCCCCCCCOP(=O)([O-])OC1CC[N+](C)(C)CC1 [PERIFOSINE]
3. COc1cc2ncn(-c3cc(OCc4ccccc4C(F)(F)F)c(C(N)=O)s3)c2cc1OC [GW 843682X]
4. COc1ccc2c(c1)CC[C@@H]1[C@@H]2CC[C@]2(C)[C@@H](NCCCCCCN3C(=O)C=CC3=O)CC[C@@H]12 [U 73122]
5. C#Cc1cccc(Nc2ncnc3cc(OCCOC)c(OCCOC)cc23)c1 [Erlotinib hydrochloride]
6. CN[C@@H]1C[C@H]2O[C@@](C)([C@@H]1OC)n1c3ccccc3c3c4c(c5c6ccccc6n2c5c31)C(=O)NC4 [Staurosporine, reference compound]

[45.34, 87.84, 167.00, 128.80, 96.34, 18.86]

Provide Split Luciferase Assay %Lum Avg values for the following items, in order.
1. O=P(O)(O)C(O)(Cn1ccnc1)P(=O)(O)O [Zoledronic acid]
2. CCN(CC)CCNC(=O)c1c(C)[nH]c(/C=C2\C(=O)Nc3ccc(F)cc32)c1C [Sunitinib]

109.99
70.82

Provide Split Luciferase Assay %Lum Avg values for the following items, in order.
1. CCN(CCO)CCCOc1ccc2c(Nc3cc(CC(=O)Nc4cccc(F)c4)[nH]n3)ncnc2c1 [AZD1152-HQPA]
2. CNCc1ccc(-c2[nH]c3cc(F)cc4c3c2CCNC4=O)cc1 [AG014699]
3. COc1cc2c(Oc3ccc4[nH]c(C)cc4c3F)ncnc2cc1OCCCN1CCCC1 [CEDIRANIB]

94.10
66.59
63.56

Report Split Luciferase Assay %Lum Avg for N.N.[Cl][Pt][Cl] [Cisplatin] please.
94.15
